Reference source for all entries: patent US10508103B2

// reported IC50 per item
assayed.system: cIAP1-BIR3 Protein (Homo sapiens (Human), UniProt Q13490)
Sequence (Q13490 253-363): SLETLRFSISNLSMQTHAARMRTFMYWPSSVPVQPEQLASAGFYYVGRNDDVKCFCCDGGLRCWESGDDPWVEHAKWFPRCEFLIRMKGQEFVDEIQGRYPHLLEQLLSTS
assay.summary: Fluorescence polarization affinity of compounds to cIAP1-BIR3
Assay type: binding
test.settings: cIAP1-BIR3 20 nM; 5 nM ARPFAQ-K(5-FAM)-NH2 probe; FP; pH 7.5; read-out: affinity to target protein in vitro, cIAP1-BIR3 Protein (IC50)

Use these answered entries as a reference point.
INSERT INTO measurements (molecule, quantity_name, observed_measurement) VALUES
  ('CN[C@@H](C)C(=O)N[C@H](C(=O)N1C[C@@H](F)C[C@H]1Cc1c(-c2nc3cc(F)ccc3n2C[C@@H]2C[C@H](F)CN2C(=O)[C@@H](NC(=O)[C@H](C)NC)C(C)C)[nH]c2cc(F)ccc12)C(C)C [Embodiment 16]', 'IC50', '< 10 nM'),
  ('CN[C@@H](C)C(=O)N[C@H](C(=O)N1C[C@@H](F)C[C@H]1Cc1c(-c2nc3cc(F)ccc3n2C[C@@H]2C[C@H](F)CN2C(=O)[C@@H](NC(=O)[C@H](C)NC)C2CC2)[nH]c2cc(F)ccc12)C1CCCCC1 [Embodiment 23]', 'IC50', '< 10 nM');

# context switch: different molecule, same IC50
// query Requested field: IC50. Item: CC[C@H](NC(=O)[C@H](C)NC)C(=O)N1C[C@@H](F)C[C@H]1Cn1c(-c2[nH]c3cc(F)ccc3c2C[C@@H]2C[C@H](F)CN2C(=O)[C@@H](NC(=O)[C@H](C)NC)C2CCCCC2)nc2cc(F)ccc21 [Embodiment 27]
// result < 10 nM
